This collection of values is drawn from paper PMC7156458.

- protocolText: cytotoxicity in Drosophila l(2)mbn cells
- Assay type: cell-based
- runConditions: Drosophila, l(2)mbn cells (larval blood cell-derived), 4 µM, replicate 1, relative to DMSO 1%, read-out: % viability, viability 1
reportedMetric: viability at 4 µM (%)
Give the value in % but do not write % after it.

# compound, unitAbbrev, viability at 4 µM
data = [
    ("C=C1CCC2C(C)(CC(=O)C=C(C)C)C(O)CCC2(C)C1Cc1c(OC)oc(C)c(C)c1=O (stereo not shown)", "%", 137),
    ("C=C1CCC2C(C)(CC(=O)C=C(C)C)C(O)CCC2(C)C1Cc1c(OC)oc(CO)c(C)c1=O (stereo not shown)", "%", 125),
    ("C=C1CCC2C(C)(CCC=C(C)C)C(O)CCC2(C)C1Cc1c(OC)oc(C)c(C(=O)OC)c1=O (stereo not shown)", "%", 18.5),
]

We next turn to a different compound, shown below.
**Query** Fill in the blank: the reported viability at 4 µM of C=C1CC[C@H]2[C@]3(C)C[C@@H](C=C(C)C)O[C@H]3CC[C@]2(C)[C@@H]1Cc1c(OC)oc(CO)c(C)c1=O is ____.
**Result** 31.4

----------
- testedTarget: Aβ42 (Homo sapiens)
- protocolText: Th-T (thioflavin-T) assay of Aβ42 aggregation
- Format: biochemical
- runConditions: head suffix _50 (concentration 50); reading M81
reportedMetric: Th-T fluorescence of Aβ42 (sheet Fig. 7a), mean of three wells
Write the value as a bare number.

In the examples that follow, each entry is paired with its recorded Th-T fluorescence of Aβ42 (sheet Fig. 7a), mean of three wells.
# compound, testedTarget, resultNumber
measured = [
    ("C=C1CCC2C(C)(CCC=C(C)C)C(O)CCC2(C)C1Cc1c(OC)oc(CO)c(C)c1=O (centres unmarked) [Compound 12]", "Aβ42 (Homo sapiens)", 1.42),
    ("C=C1CCC2C(C)(CCC=C(C)C)C(O)CCC2(C)C1Cc1c(OC)oc(C)c(C(=O)OC)c1=O (centres unmarked) [Compound 14]", "Aβ42 (Homo sapiens)", 2.257),
    ("C=C1CC[C@@H]2[C@](C)(CC[C@H]3O[C@H](C=C(C)C)C[C@@]23C)[C@@H]1Cc1c(OC)oc(CO)c(C)c1=O [Compound 20]", "Aβ42 (Homo sapiens)", 2.1),
    ("C=C1CC[C@@H]2[C@](C)(CC[C@H]3O[C@H](C=C(C)C)C[C@@]23C)[C@@H]1Cc1c(OC)oc(CO)c(C(=O)OC)c1=O [Compound 21]", "Aβ42 (Homo sapiens)", 0.339),
]

We next turn to a different compound, shown below.
**Query** Fill in the blank: the reported Th-T fluorescence of Aβ42 (sheet Fig. 7a), mean of three wells of C=C1CCC2C(C)(CCC=C(C)C)C(O)CCC2(C)C1Cc1c(OC)oc(CO)c(C(=O)OC)c1=O (centres unmarked) [Compound 13] is ____.
**Result** 0.4727

----------
- testedTarget: Aβ42 (Homo sapiens, UniProt P05067)
- Sequence (P05067 672-713): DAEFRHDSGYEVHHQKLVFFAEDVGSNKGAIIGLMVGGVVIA
- protocolText: Th-T (thioflavin-T) assay of Aβ42 aggregation
- Type: biochemical
- runConditions: column suffix _50; reading M85
// f strictly below 2 in Fig. 7a Th-T reading, mean of three wells; t otherwise

# count of solved cases: 3
# compound, label
rows = [
    ("C=C1CCC2C(C)(CCC=C(C)C)C(O)CCC2(C)C1Cc1c(OC)oc(CO)c(C(=O)OC)c1=O (centres unmarked) [Compound 13]", "f"),
    ("C=C1CC[C@@H]2[C@](C)(CC[C@H]3O[C@H](C=C(C)C)C[C@@]23C)[C@@H]1Cc1c(OC)oc(CO)c(C)c1=O [Compound 20]", "t"),
    ("C=C1CC[C@@H]2[C@](C)(CC[C@H]3O[C@H](C=C(C)C)C[C@@]23C)[C@@H]1Cc1c(OC)oc(CO)c(C(=O)OC)c1=O [Compound 21]", "f"),
]

**Query** Check if Fig. 7a Th-T reading, mean of three wells >= 2 (inclusive). Item: C=C1CCC2C(C)(CCC=C(C)C)C(O)CCC2(C)C1Cc1c(OC)oc(CO)c(C)c1=O (centres unmarked) [Compound 12]
**Result** f
